Examples of compounds with documented IC50 follow.
experimentalSystem: human ERβ (Homo sapiens, UniProt Q92731)
Construct: made in house; host or cells: E. coli (crude lysate)
Sequence (Q92731 264-498 limits assumed): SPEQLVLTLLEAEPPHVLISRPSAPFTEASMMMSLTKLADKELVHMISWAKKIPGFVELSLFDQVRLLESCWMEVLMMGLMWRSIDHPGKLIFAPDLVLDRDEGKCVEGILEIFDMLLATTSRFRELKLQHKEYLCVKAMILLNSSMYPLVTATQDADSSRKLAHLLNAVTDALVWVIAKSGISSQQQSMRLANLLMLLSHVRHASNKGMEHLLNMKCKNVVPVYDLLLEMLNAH
measurementDescription: Competition with [3H]-17β-estradiol for binding to ERβ
conditionNotes: ligand binding domain of human ERβ in E. coli crude lysate, 2 nM [3H]-17β-estradiol, 5-15 hours at room temperature
Please state the figure in nM; there is no need to write the unit.

Below: 8 compounds and their reported IC50.
Oc1ccc2c(c1)COc1c-2cc2ccc(O)cc2c1-c1cccc(C(F)(F)F)c1    10
Oc1ccc2c(c1)COc1c-2cc2ccc(O)cc2c1-c1ccccc1    4.1
N#Cc1ccc(-c2c3c(cc4ccc(O)cc24)-c2ccc(O)cc2CO3)cc1    9.2
Oc1ccc2c(c1)COc1cc3c(Cl)c(O)ccc3cc1-2    0.53
COc1ccc(-c2c3c(cc4ccc(O)cc24)-c2ccc(O)cc2CO3)cc1OC    22
Oc1ccc2c(c1)COc1c-2cc2ccc(O)cc2c1-c1cccs1    1.4
Cc1ccccc1-c1c2c(cc3ccc(O)cc13)-c1ccc(O)cc1CO2    11
Cc1ccc(-c2c3c(cc4ccc(O)cc24)-c2ccc(O)cc2CO3)cc1C    22

Incoming: Can you look up the measured IC50 of CCc1ccc(-c2c3c(cc4ccc(O)cc24)-c2ccc(O)cc2CO3)cc1 for me?
Outgoing: 26

Incoming: Which IC50 is listed for Cc1c2c(cc3ccc(O)cc13)-c1ccc(O)cc1CO2 ?
Outgoing: 1

Incoming: IC50 for Oc1ccc2c(c1)COc1c-2cc2ccc(O)cc2c1Cl ?
Outgoing: 1.5

Incoming: Please look up its IC50: COc1cncc(-c2c3c(cc4ccc(O)cc24)-c2ccc(O)cc2CO3)c1
Outgoing: 34

Incoming: Find the recorded IC50 belonging to CSc1ccc(-c2c3c(cc4ccc(O)cc24)-c2ccc(O)cc2CO3)cc1 and report it.
Outgoing: 142

* * *

experimentalSystem: human ERα (Homo sapiens, UniProt P03372)
Construct: made in house; host or cells: E. coli (crude lysate)
measurementDescription: Competition with [3H]-17β-estradiol for binding to ERα
conditionNotes: ligand binding domain of human ERα in E. coli crude lysate, 2 nM [3H]-17β-estradiol, 5-15 hours at room temperature; read-out: ERα (nM) IC50
Description: Representative examples of the invention were evaluated for their ability to compete with 17β-estradiol for both ERα and ERβ. This test procedure provides the methodology for one to determine whether a particular compound binds to the estrogen receptor (and is therefore “estrogenic”) and whether there is selectivity for ERα or ERβ. […] After between 5 and 15 hours at room temperature, the plates were washed with DPBS/1 mM EDTA and bound radioactivity determined by liquid scintillation counting. […]
measuredProperty: IC50

Oc1ccc2c(c1)COc1c-2cc2ccc(O)cc2c1-c1ccccc1F    73 nM
Oc1ccc2c(c1)COc1c-2cc2ccc(O)cc2c1-c1cccc(OC(F)(F)F)c1    661 nM
OCc1ccccc1-c1c2c(cc3ccc(O)cc13)-c1ccc(O)cc1CO2    531 nM
COc1c2c(c(Cl)c3ccc(O)cc13)-c1ccc(O)cc1CO2    13 nM
N#Cc1ccc(-c2c3c(cc4ccc(O)cc24)-c2ccc(O)cc2CO3)cc1    162 nM

Incoming: Look at this compound and give its reported IC50. Cc1ccc(-c2c3c(cc4ccc(O)cc24)-c2ccc(O)cc2CO3)cc1
Outgoing: 137 nM

* * *

experimentalSystem: human ERα (Homo sapiens, UniProt P03372)
Construct: made in house; host or cells: E. coli (crude lysate)
measurementDescription: Competition with [3H]-17β-estradiol for binding to ERα
conditionNotes: ligand binding domain of human ERα in E. coli crude lysate, 2 nM [3H]-17β-estradiol, 5-15 hours at room temperature; read-out: ERα (nM) IC50
Catalogue of molecules with associated IC50
Answer in nM, number only, no unit symbol.

CCCCc1c2c(cc3ccc(O)cc13)-c1ccc(O)cc1CO2 [Example 49, 7-Butyl-5H-dibenzo[c,g]chromene-3,9-diol]    4
Cc1cccc(-c2c3c(cc4ccc(O)cc24)-c2ccc(O)cc2CO3)c1 [Example 25]    117
Oc1ccc2c(c1)COc1c-2cc2ccc(O)cc2c1-c1ccsc1 [Example 31]    152

# context switch: different molecule, same IC50
Incoming: IC50 lookup needed for Oc1ccc2c(c1)COc1c-2cc2ccc(O)cc2c1-c1ccc(F)cc1 [Example 29] , thanks.
Outgoing: 298

* * *

experimentalSystem: human ERα (Homo sapiens)
Construct: made in house; host or cells: E. coli (crude lysate)
Sequence (P03372 311-547 limits assumed): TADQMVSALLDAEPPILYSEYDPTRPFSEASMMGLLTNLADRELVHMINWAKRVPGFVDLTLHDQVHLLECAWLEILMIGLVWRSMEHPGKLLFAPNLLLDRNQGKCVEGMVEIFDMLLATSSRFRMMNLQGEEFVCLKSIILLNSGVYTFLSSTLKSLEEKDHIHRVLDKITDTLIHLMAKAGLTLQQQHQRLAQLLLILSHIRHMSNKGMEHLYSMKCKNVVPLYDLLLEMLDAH
measurementDescription: Competition with [3H]-17β-estradiol for binding to ERα
conditionNotes: ligand binding domain of human ERα in E. coli crude lysate, 2 nM [3H]-17β-estradiol, 5-15 hours at room temperature; read-out: ERα (nM) IC50
Entries whose IC50 is below 80 nM take Yes; entries at or above 80 nM take No.

These recorded examples may help you get a feel for the data.
Oc1ccc2c(c1)COc1c-2cc2ccc(O)cc2c1-c1ccccn1 [Example 54]    No
Oc1ccc2c(c1)COc1c-2cc2ccc(O)cc2c1-c1cccs1 [Example 30]    Yes
Cc1cc(-c2c3c(cc4ccc(O)cc24)-c2ccc(O)cc2CO3)ccc1F [Example 46]    No
C=Cc1c2c(cc3ccc(O)cc13)-c1ccc(O)cc1CO2 [Example 16, 7-Vinyl-5H-dibenzo[c,g]chromene-3,9-diol]    Yes
Oc1ccc2c(c1)COc1c-2cc2ccc(O)cc2c1-c1ccoc1 [Example 47]    Yes

Incoming: In plain terms, does Oc1ccc2c(c1)COc1c-2cc2ccc(O)cc2c1-c1ccc(OC(F)(F)F)cc1 [Example 59] come in under 80 nM for IC50?
Outgoing: No

Incoming: Strictly below 80 nM: is that where IC50 of Cc1c2c(cc3ccc(O)cc13)-c1ccc(O)cc1CO2 [Example 21] sits?
Outgoing: Yes

Incoming: Is it true that IC50 reported for Oc1ccc2c(c1)COc1c-2cc2ccc(O)cc2c1-c1ccco1 [Example 48] is less than 80 nM?
Outgoing: No

Incoming: Below 80 nM on IC50? Entry Oc1ccc2c(c1)COc1c-2cc2ccc(O)cc2c1Br [Example 13, 7-Bromo-5H-dibenzo[c,g]chromene-3,9-diol]
Outgoing: Yes

* * *

measuredProperty: melting point

// below: answered compounds
COc1ccc(-c2c3c(cc4ccc(O)cc24)-c2ccc(O)cc2CO3)cc1OC    245 to 248 °C
COc1ccncc1-c1c2c(cc3ccc(O)cc13)-c1ccc(O)cc1CO2    > 220 °C
Cc1ccc(-c2c3c(cc4ccc(O)cc24)-c2ccc(O)cc2CO3)cc1    238 to 240 °C

// next entry
Incoming: May I ask what melting point has been recorded for CSc1ccc(-c2c3c(cc4ccc(O)cc24)-c2ccc(O)cc2CO3)cc1 ?
Outgoing: 195 to 198 °C
